- Target entity: T1, human TNFR2 overexpressed on CHO-S cells (CHOS-hTNFR2) (human, UniProt P20333 23-461)
- T1 construct: also called hTNFR2 CHO-S; human TNFR2 molecule overexpressed on CHO-S cells
- T1 sequence: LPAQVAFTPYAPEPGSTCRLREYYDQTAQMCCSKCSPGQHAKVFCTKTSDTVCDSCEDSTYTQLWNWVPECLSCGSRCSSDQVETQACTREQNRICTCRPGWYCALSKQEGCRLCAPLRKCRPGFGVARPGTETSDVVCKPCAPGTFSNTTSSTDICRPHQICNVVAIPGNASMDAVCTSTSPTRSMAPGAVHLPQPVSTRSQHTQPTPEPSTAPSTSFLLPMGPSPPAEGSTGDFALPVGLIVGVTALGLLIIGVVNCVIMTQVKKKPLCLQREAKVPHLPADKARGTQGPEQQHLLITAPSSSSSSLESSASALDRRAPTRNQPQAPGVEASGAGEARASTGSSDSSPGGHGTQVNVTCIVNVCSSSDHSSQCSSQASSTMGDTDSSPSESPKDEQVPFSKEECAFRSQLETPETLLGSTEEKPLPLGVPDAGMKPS
- Experimental protocol: flow cytometry on CHO-S cells overexpressing human TNFR2 (humanized antibodies), MFI-FL2A; unit taken from the axis Conc log(nM)
pEC50: −log10 of the molar value.
# key: entry, value: pEC50

Binder: humanized antibody hz3C4.7 (antibody, human IgG1, kappa, V domains shown) VH: QVQLVQSGAEVKKPGASVKVSCKASDYSFTNYYIHWVRQAPGQGLEWMGWIYPGNVITKYHEKFKGRVTMTADTSTSTAYMELSSLRSEDTAVYYCARSRATGYFDYWGQGTLVTVSS VL: DIQMTQSPSSLSASVGDRVTITCRASQDIRNYLNWYQQKPGKAPKLLIYYTSRLHSGVPSRFSGSGSGTDYTLTISSLQPEDFATYYCQQFNTLPWTFGGGTKVEIKR
pEC50: 9.68
//
Binder: humanized antibody hz69B1.6 (antibody, human IgG1, kappa, V domains shown) VH: QVQLVQSGAEVKKPGASVKVSCKASGYTFTDYSMNWVRQAPGQRLEWMGWLNTETGEPIYADDFKGRVTITRDTSASTAYMELSSLRSEDTAVYYCAREAIYYGTSYVLDYWGQGTLVTVSS VL: DIVLTQSPASLAVSPGQRATITCRASESVEYYGTNFMQWYQQKPGQPPKLLIYSASNVESGVPARFSGSGSGTDFTLTINPVEANDTANYFCQQSRKDPSTFGQGTKLEIKR
pEC50: 9.45
